Species on record: Rattus norvegicus
Experiment: Open TG-GATES - Regimen: Single
Type: toxicity, organism-based, Sprague-Dawley
Design: regimen Single, gender Male, age 6 weeks
Settings: in vivo, po, 0 mg/kg, 6 h, tissue Blood, route gavage, dose level Control
Catalogue of compounds with associated Bas

[
  {
    "compound": "O=c1ccc2ccccc2o1",
    "Bas [%]": 0
  },
  {
    "compound": "C=C[C@H]1C[N@@]2CC[C@H]1C[C@@H]2[C@@H](O)c1ccnc2ccc(OC)cc12",
    "Bas [%]": 0
  },
  {
    "compound": "CC(S)C(=O)NCC(=O)O (stereo unspecified)",
    "Bas [%]": 0
  },
  {
    "compound": "COc1cc2ncnc(Nc3ccc(F)c(Cl)c3)c2cc1OCCCN1CCOCC1",
    "Bas [%]": 0
  },
  {
    "compound": "CCN(CC)C(=S)SSC(=S)N(CC)CC",
    "Bas [%]": 0
  },
  {
    "compound": "CN(C/C=C/C#CC(C)(C)C)Cc1cccc2ccccc12",
    "Bas [%]": 0.6
  }
]

###

Organism: Rattus norvegicus
Test: Open TG-GATES - Regimen: Daily Repeat
Assay type: toxicity, organism-based, Sprague-Dawley
Parameters: regimen Daily Repeat, gender Male, age 6 weeks
Conditions: in vivo, po, 1000 mg/kg, 72 h, tissue Plasma, route gavage, dose level High, time 3 day

[
  {
    "molecule": "O=C(O)c1ccccc1Nc1ccccc1",
    "uom": "mg/dL",
    "BUN": 17
  },
  {
    "molecule": "CC(S)C(=O)NCC(=O)O (centres undefined)",
    "uom": "mg/dL",
    "BUN": 15.2
  },
  {
    "molecule": "CC(=O)[C@@]1(O)CC[C@H]2[C@@H]3C=C(Cl)C4=CC(=O)CC[C@]4(C)[C@H]3CC[C@@]21C",
    "uom": "mg/dL",
    "BUN": 17.4
  },
  {
    "molecule": "CCCCNC(=O)NS(=O)(=O)c1ccc(C)cc1 [TOLBUTAMIDE]",
    "uom": "mg/dL",
    "BUN": 12.8
  }
]

###

Species: Rattus norvegicus
Test: Open TG-GATES - Regimen: Daily Repeat
Format: toxicity, organism-based, Sprague-Dawley
Set-up: regimen Daily Repeat, gender Male, age 6 weeks
Settings: in vivo, po, 0 mg/kg, […], tissue Blood, route gavage, dose level Control, time 14 day
Threshold-based label: Fbg under 300 mg/dL gives Met, Fbg not under 300 mg/dL gives Not met.

[
  {
    "compound": "CCCCC1C(=O)N(c2ccccc2)N(c2ccccc2)C1=O [PHENYLBUTAZONE]",
    "discrete_label": "Met"
  },
  {
    "compound": "CCN(CC)C(=S)SSC(=S)N(CC)CC",
    "discrete_label": "Not met"
  },
  {
    "compound": "O=c1ccc2ccccc2o1 [COUMARIN]",
    "discrete_label": "Met"
  },
  {
    "compound": "CC(=O)[C@@]1(O)CC[C@H]2[C@@H]3C=C(Cl)C4=CC(=O)CC[C@]4(C)[C@H]3CC[C@@]21C [CHLORMADINONE]",
    "discrete_label": "Not met"
  },
  {
    "compound": "CN(CCOc1ccc(CC2SC(=O)NC2=O)cc1)c1ccccn1.O=C(O)/C=C\\C(=O)O (stereo not drawn) [ROSIGLITAZONE MALEATE]",
    "discrete_label": "Met"
  },
  {
    "compound": "CN(C/C=C/C#CC(C)(C)C)Cc1cccc2ccccc12 [TERBINAFINE]",
    "discrete_label": "Met"
  },
  {
    "compound": "CCCCNC(=O)NS(=O)(=O)c1ccc(C)cc1 [TOLBUTAMIDE]",
    "discrete_label": "Met"
  },
  {
    "compound": "CCO [ALCOHOL]",
    "discrete_label": "Met"
  },
  {
    "compound": "NS(=O)(=O)c1cc(C(=O)O)c(NCc2ccco2)cc1Cl [FUROSEMIDE]",
    "discrete_label": "Met"
  },
  {
    "compound": "COc1ccc([C@@H]2Sc3ccccc3N(CCN(C)C)C(=O)[C@@H]2OC(C)=O)cc1 [DILTIAZEM]",
    "discrete_label": "Met"
  },
  {
    "compound": "Nc1ccc(Cc2ccc(N)cc2)cc1",
    "discrete_label": "Met"
  }
]

###

Species on record: Rattus norvegicus
Test: Open TG-GATES - Regimen: Daily Repeat
Type: toxicity, organism-based, Sprague-Dawley
Parameters: regimen Daily Repeat, gender Male, age 6 weeks
Conditions: in vivo, po, 0 mg/kg, […], tissue Plasma, route gavage, dose level Control, time 14 day
Catalogue of molecules with associated PL
parameter_measured: PL (mg/dL)

[
  {
    "molecule": "NS(=O)(=O)c1cc(C(=O)O)c(NCc2ccco2)cc1Cl [FUROSEMIDE]",
    "readout_number": 160.6
  },
  {
    "molecule": "CN(C/C=C/C#CC(C)(C)C)Cc1cccc2ccccc12 [TERBINAFINE]",
    "readout_number": 132.8
  },
  {
    "molecule": "COc1ccc([C@@H]2Sc3ccccc3N(CCN(C)C)C(=O)[C@@H]2OC(C)=O)cc1 [DILTIAZEM]",
    "readout_number": 160.4
  },
  {
    "molecule": "CCCCNC(=O)NS(=O)(=O)c1ccc(C)cc1 [TOLBUTAMIDE]",
    "readout_number": 149
  },
  {
    "molecule": "O=c1ccc2ccccc2o1 [COUMARIN]",
    "readout_number": 165.8
  },
  {
    "molecule": "CCCCC1C(=O)N(c2ccccc2)N(c2ccccc2)C1=O [PHENYLBUTAZONE]",
    "readout_number": 160.4
  },
  {
    "molecule": "CC(S)C(=O)NCC(=O)O (stereo not drawn) [TIOPRONIN]",
    "readout_number": 135.6
  },
  {
    "molecule": "CCO [ALCOHOL]",
    "readout_number": 138.6
  },
  {
    "molecule": "CC(=O)[C@@]1(O)CC[C@H]2[C@@H]3C=C(Cl)C4=CC(=O)CC[C@]4(C)[C@H]3CC[C@@]21C [CHLORMADINONE]",
    "readout_number": 137.4
  },
  {
    "molecule": "Nc1ccc(Cc2ccc(N)cc2)cc1",
    "readout_number": 147
  },
  {
    "molecule": "CN(CCOc1ccc(CC2SC(=O)NC2=O)cc1)c1ccccn1.O=C(O)/C=C\\C(=O)O (stereo not drawn) [ROSIGLITAZONE MALEATE]",
    "readout_number": 159.4
  },
  {
    "molecule": "O=C(O)c1ccccc1Nc1ccccc1 [FENAMIC ACID]",
    "readout_number": 143.2
  },
  {
    "molecule": "CCN(CC)C(=S)SSC(=S)N(CC)CC",
    "readout_number": 143
  }
]

###

Catalogue of compounds with associated MCHC
Species on record: Rattus norvegicus
Assay: Open TG-GATES - Regimen: Single
Format: toxicity, organism-based, Sprague-Dawley
Design: regimen Single, gender Male, age 6 weeks
Conditions: in vivo, po, 0 mg/kg, 24 h, tissue Blood, route gavage, dose level Control

[
  {
    "compound": "COc1ccc([C@@H]2Sc3ccccc3N(CCN(C)C)C(=O)[C@@H]2OC(C)=O)cc1",
    "uom": "%",
    "MCHC": 32.9
  },
  {
    "compound": "CCO",
    "uom": "%",
    "MCHC": 34
  },
  {
    "compound": "CCCCNC(=O)NS(=O)(=O)c1ccc(C)cc1 [TOLBUTAMIDE]",
    "uom": "%",
    "MCHC": 32.9
  },
  {
    "compound": "O=c1ccc2ccccc2o1",
    "uom": "%",
    "MCHC": 33.4
  },
  {
    "compound": "CC(=O)[C@@]1(O)CC[C@H]2[C@@H]3C=C(Cl)C4=CC(=O)CC[C@]4(C)[C@H]3CC[C@@]21C",
    "uom": "%",
    "MCHC": 32.5
  },
  {
    "compound": "NS(=O)(=O)c1cc(C(=O)O)c(NCc2ccco2)cc1Cl [FUROSEMIDE]",
    "uom": "%",
    "MCHC": 33.3
  },
  {
    "compound": "Nc1ccc(Cc2ccc(N)cc2)cc1",
    "uom": "%",
    "MCHC": 34.5
  },
  {
    "compound": "CC(S)C(=O)NCC(=O)O (stereo not drawn)",
    "uom": "%",
    "MCHC": 32.7
  },
  {
    "compound": "CN(CCOc1ccc(CC2SC(=O)NC2=O)cc1)c1ccccn1.O=C(O)/C=C\\C(=O)O (stereo not drawn) [ROSIGLITAZONE MALEATE]",
    "uom": "%",
    "MCHC": 32.8
  },
  {
    "compound": "O=C(O)c1ccccc1Nc1ccccc1",
    "uom": "%",
    "MCHC": 33
  },
  {
    "compound": "CN(C)CCCN1c2ccccc2Sc2ccc(Cl)cc21",
    "uom": "%",
    "MCHC": 33.8
  },
  {
    "compound": "CN(C/C=C/C#CC(C)(C)C)Cc1cccc2ccccc12",
    "uom": "%",
    "MCHC": 33.7
  },
  {
    "compound": "CCN(CC)C(=S)SSC(=S)N(CC)CC",
    "uom": "%",
    "MCHC": 32.6
  }
]

Attribution: ChEMBL document CHEMBL3885861
